# tested_target: PDE10 (Homo sapiens (Human))
# Sequence (Q9Y233 whole entry, species assumed): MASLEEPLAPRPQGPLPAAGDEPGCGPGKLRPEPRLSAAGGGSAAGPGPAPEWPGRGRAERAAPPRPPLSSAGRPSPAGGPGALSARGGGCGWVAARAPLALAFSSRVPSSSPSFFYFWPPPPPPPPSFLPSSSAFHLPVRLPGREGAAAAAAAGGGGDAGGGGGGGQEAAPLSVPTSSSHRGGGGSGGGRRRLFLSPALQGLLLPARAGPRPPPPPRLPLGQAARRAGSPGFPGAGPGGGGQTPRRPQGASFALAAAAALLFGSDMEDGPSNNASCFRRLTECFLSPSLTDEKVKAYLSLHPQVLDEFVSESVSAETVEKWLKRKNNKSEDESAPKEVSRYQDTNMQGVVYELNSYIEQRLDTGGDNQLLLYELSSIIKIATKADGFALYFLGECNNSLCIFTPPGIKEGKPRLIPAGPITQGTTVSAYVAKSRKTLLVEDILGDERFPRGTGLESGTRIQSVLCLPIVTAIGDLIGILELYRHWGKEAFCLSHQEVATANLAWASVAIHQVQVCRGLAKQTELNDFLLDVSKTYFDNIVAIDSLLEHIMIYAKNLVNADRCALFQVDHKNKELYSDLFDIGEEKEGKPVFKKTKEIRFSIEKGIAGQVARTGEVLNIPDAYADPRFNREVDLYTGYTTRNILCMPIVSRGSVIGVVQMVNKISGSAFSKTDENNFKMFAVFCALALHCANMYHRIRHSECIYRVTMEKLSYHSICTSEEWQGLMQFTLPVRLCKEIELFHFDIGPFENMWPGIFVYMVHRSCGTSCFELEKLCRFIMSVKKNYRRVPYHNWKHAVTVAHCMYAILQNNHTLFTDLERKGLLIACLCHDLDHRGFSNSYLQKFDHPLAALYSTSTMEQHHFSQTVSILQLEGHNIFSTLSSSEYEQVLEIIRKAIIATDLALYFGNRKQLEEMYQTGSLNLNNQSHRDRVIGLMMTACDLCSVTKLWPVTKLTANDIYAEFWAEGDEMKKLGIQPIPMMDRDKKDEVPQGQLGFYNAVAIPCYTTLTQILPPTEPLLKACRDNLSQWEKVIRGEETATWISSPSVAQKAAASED
measured_property: IC50 (µM)

INSERT INTO measurements (compound, unit_of_measure, recorded_result) VALUES
  ('Cc1nc2ccc(C(F)(F)F)nc2n2c(-c3cc(C4(O)CCCOC4)ccc3Cl)nnc12 (single isomer, unassigned) [Example 114b]', 'µM', 10),
  ('Cc1nc2ccc(C(F)(F)F)nc2n2c(-c3cc(OC4COCC4O)ccc3Cl)nnc12 (racemic) [Example 111]', 'µM', 3.98),
  ('Cc1nc2cccnc2n2c(-c3cc(C4(O)CCCOC4)ccc3Cl)nnc12 (single isomer, unassigned) [Example 112a]', 'µM', 2.6),
  ('Cc1nc2ccc(C(F)(F)F)nc2n2c(-c3cc(OC4COCC4O)ccc3F)nnc12 (racemic)', 'µM', 1.94),
  ('Cc1nc2ccc(C(F)(F)F)nc2n2c(-c3cc(OC4COCC4O)ccc3Cl)nnc12 (single isomer, unassigned) [Example 111a]', 'µM', 1.83),
  ('Cc1nc2ccc(C3CC3)nc2n2c(-c3cc(C4(O)CCCOC4)ccc3Cl)nnc12 (stereo not shown)', 'µM', 3.19),
  ('Cc1nc2cccnc2n2c(-c3cc(C4(O)CCCOC4)ccc3Cl)nnc12 (racemic) [Example 112]', 'µM', 7),
  ('Cc1nc2ccc(C(F)(F)F)nc2n2c(-c3cc(C4(O)CCOC4)ccc3Cl)nnc12 (single isomer, unassigned) [Example 115b]', 'µM', 10),
  ('Cc1nc2ccc(C(F)(F)F)nc2n2c(-c3cc(C(C)(C)O)ccc3Cl)nnc12 [Example 103b]', 'µM', 10),
  ('Cc1ccc(C2(O)CCC2)cc1-c1nnc2c(C)nc3cccnc3n12', 'µM', 10),
  ('Cc1nc2cccnc2n2c(-c3cc(C4(O)CCCOC4)ccc3Cl)nnc12 (single isomer, unassigned) [Example 112b]', 'µM', 2.5),
  ('Cc1ccc(C2(O)CCOCC2)cc1-c1nnc2c(C)nc3ccc(C(F)(F)F)nc3n12 [Example 96b]', 'µM', 10),
  ('Cc1nc2ccc(C(F)(F)F)nc2n2c(-c3cc(OC4COCC4O)ccc3Cl)nnc12 (single isomer, unassigned) [Example 111b]', 'µM', 2.13);
